Quick list: pKi per entry.
- Test target: Ectonucleotide pyrophosphatase/phosphodiesterase family member 1 (Homo sapiens)
- Sequence (P22413 whole entry): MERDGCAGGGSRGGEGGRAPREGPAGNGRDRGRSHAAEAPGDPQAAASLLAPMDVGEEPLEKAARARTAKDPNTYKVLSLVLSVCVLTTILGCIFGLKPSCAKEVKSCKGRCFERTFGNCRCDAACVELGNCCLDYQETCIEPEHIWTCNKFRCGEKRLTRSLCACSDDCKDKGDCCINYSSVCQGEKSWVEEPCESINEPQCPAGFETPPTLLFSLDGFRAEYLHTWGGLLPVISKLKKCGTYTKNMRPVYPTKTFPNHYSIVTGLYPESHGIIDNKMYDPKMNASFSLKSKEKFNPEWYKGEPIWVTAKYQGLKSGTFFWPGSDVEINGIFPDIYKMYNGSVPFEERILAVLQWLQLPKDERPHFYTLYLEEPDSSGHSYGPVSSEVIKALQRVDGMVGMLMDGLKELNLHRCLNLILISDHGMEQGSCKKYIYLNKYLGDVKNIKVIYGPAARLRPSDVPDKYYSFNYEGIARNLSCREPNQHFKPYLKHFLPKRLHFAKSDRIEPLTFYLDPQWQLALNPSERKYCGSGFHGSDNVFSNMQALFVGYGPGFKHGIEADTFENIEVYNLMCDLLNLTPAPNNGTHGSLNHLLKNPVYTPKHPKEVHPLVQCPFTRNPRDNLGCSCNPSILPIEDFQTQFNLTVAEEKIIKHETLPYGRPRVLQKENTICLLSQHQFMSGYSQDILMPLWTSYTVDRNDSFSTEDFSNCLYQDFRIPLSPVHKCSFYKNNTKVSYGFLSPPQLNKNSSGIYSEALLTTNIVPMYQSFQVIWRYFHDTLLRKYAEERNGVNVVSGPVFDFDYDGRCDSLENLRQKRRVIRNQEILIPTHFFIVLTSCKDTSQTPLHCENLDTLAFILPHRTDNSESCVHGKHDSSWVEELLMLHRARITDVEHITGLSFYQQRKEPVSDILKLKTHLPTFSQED
- Assay summary: Inhibition of human recombinant NPP1 expressed in insect SF9 cells using ATP as substrate preincubated with substrate followed by protein addition and subsequent incubation for 30 mins by capillary electrophoresis
pKi: −log10 of the molar value.

Consider the molecule `COc1cc(/C=c2/sc3nc4ccccc4n3c2=O)ccc1OCc1nnn[nH]1` and give its recorded pKi.
< 5.00

State its pKi for this molecule: `O=c1/c(=C/C=C/c2ccccc2)sc2nc3ccccc3n12`
< 5.00

Recall and state the measured pKi for `Cc1ccc(/C=c2\sc3nc4ccccc4n3c2=O)cc1` .
< 5.00

Give pKi for `O=c1/c(=C/c2ccc(-c3ccccc3)o2)sc2nc3ccccc3n12`
≤ 5.00

Identify measured pKi associated with `O=c1/c(=C/c2cccc(Oc3ccccc3)c2)sc2nc3ccccc3n12`
< 5.00

Write down pKi measured for item `O=c1/c(=C/c2ccc(Sc3ccccc3)o2)sc2nc3ccccc3n12`
≤ 5.00

// fetch pKi given entry `O=c1/c(=C\c2ccc3ccccc3c2)sc2nc3ccccc3n12`
< 5.00

====

- Test target: Ectonucleotide pyrophosphatase/phosphodiesterase family member 1 (Homo sapiens, UniProt P22413)
- Assay summary: Inhibition of human recombinant NPP1 expressed in insect SF9 cells using ATP as substrate preincubated with substrate followed by protein addition and subsequent incubation for 30 mins by capillary electrophoresis
Quantity kind: Ki

# return recorded Ki for input `C/C=c1\sc2nc3ccccc3n2c1=O`
> 10 µM

For `O=c1/c(=C/c2ccc(Br)o2)sc2nc3ccccc3n12` , write its Ki.
0.61 µM

Retrieve Ki measured for `O=c1/c(=C/c2ccc(I)cc2)sc2nc3ccccc3n12` and print it.
> 10 µM

====

Entries and their Ki values follow.
- Test target: Ectonucleotide pyrophosphatase/phosphodiesterase family member 1 (Homo sapiens)
- Sequence (P22413 whole entry): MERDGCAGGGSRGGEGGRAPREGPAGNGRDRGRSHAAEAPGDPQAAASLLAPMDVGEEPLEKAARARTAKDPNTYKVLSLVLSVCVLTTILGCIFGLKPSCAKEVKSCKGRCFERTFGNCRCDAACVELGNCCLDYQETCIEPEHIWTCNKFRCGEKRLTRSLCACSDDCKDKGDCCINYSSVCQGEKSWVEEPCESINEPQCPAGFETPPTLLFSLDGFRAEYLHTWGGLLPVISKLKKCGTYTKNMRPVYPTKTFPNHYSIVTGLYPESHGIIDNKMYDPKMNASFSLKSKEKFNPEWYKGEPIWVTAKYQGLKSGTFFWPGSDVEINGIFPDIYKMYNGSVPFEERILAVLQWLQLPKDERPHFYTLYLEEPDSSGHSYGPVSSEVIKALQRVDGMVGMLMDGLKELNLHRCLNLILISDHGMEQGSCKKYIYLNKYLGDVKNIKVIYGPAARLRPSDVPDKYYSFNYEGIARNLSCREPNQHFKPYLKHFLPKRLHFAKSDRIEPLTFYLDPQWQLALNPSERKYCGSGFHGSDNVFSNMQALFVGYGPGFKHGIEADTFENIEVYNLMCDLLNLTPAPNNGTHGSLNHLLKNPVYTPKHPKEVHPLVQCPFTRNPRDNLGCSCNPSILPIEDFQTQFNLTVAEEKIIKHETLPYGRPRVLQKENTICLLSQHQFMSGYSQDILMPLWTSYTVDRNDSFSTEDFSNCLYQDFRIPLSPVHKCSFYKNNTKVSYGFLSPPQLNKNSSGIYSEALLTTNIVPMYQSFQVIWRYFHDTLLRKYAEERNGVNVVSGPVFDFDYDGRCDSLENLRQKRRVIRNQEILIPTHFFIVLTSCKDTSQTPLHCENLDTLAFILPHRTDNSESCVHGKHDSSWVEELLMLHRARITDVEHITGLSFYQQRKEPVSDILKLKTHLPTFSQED
- Assay summary: Inhibition of human recombinant NPP1 expressed in insect SF9 cells using ATP as substrate preincubated with substrate followed by protein addition and subsequent incubation for 30 mins by capillary electrophoresis

Worked cases, answers included:
- Smiles representation: "O=c1/c(=C/c2cccc(Cc3ccccc3)c2)sc2nc3ccccc3n12"
  Result value: "> 10 µM"
- Smiles representation: "O=c1/c(=C/c2ccccn2)sc2nc3ccccc3n12"
  Result value: "> 10 µM"
- Smiles representation: "O=c1/c(=C/c2cccs2)sc2nc3ccccc3n12"
  Result value: "≥ 10 µM"

Continue with the molecule presented below.
Tell us which Ki value is on record for `O=c1/c(=C\c2ccccc2)sc2nc3ccccc3n12`
> 10 µM
